B1: tRNA (parent)
chain: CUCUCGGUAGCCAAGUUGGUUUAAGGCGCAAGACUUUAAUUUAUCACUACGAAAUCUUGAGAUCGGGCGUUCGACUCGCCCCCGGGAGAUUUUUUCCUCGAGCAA

variants of: B1; experiment: nonsense suppression (GFP-seq) (ratio to wild type); higher = more function; SUP4oc tRNA, yeast GFP reporter sort-seq
Variants at the floor of the assay were thinned out.
Parameter Measured: nonsense suppression
Provide a numeric answer; units are not to be included.

Solved entries:
{"Mutant": "U4C U22C G86A", "Parameter Measured": "nonsense suppression", "Numeric Readout": 1.16}
{"Mutant": "U16G G85C", "Parameter Measured": "nonsense suppression", "Numeric Readout": 0.0285}
{"Mutant": "C3U U22A", "Parameter Measured": "nonsense suppression", "Numeric Readout": 0.169}

Q: Which measured nonsense suppression value corresponds to A9G G61U C75G ?
Ans: 1.12

Q: Which measured nonsense suppression value corresponds to A54U C79U ?
Ans: 0.571

Q: Which measured nonsense suppression value corresponds to A62G C75A ?
Ans: 0.219
